# SUBJECT_OF_TEST: human ERG potassium channel (hERG) (Homo sapiens (Human))
# Sequence (Q12809 whole entry): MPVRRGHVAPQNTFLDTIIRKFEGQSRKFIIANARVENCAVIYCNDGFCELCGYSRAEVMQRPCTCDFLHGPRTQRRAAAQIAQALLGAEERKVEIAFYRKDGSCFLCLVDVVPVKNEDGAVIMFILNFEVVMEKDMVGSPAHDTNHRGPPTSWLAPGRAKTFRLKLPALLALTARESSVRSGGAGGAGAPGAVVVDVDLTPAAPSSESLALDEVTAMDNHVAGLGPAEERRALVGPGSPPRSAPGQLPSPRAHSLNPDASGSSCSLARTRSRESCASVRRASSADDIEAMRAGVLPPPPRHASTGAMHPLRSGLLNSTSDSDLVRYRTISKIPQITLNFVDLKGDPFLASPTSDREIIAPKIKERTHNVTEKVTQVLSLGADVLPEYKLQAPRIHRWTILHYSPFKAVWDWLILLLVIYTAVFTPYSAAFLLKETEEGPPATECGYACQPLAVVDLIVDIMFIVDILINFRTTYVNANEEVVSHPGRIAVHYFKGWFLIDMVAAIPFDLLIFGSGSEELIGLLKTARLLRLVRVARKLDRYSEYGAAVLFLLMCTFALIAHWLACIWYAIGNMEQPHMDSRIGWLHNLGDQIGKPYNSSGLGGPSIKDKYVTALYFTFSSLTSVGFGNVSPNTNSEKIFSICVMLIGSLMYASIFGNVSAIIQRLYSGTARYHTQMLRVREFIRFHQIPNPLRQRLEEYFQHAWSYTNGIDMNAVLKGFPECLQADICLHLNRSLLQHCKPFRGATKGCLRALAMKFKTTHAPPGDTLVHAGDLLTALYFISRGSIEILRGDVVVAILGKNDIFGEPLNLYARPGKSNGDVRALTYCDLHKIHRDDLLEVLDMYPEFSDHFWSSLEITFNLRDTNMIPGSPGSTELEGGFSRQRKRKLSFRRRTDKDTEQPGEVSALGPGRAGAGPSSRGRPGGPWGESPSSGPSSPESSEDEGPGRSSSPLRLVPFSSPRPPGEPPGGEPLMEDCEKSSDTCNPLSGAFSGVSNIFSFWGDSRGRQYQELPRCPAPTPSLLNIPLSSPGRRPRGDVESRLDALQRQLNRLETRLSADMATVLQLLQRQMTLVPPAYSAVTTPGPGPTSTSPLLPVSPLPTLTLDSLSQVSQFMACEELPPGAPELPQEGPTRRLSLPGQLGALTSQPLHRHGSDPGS
# ASSAY: hERG tail current recording, Rapid ICE automated patch-clamp
# Type: cell-based
# CONDITION_PARAMETERS: HEK293 cells stably transfected with hERG
RESULT_TYPE: pIC50 hERG

Answered cases to consult:
>  <COMPOUND>
Fc1cccc(Oc2cc(F)c(F)cc2N2CCC3(CCCNC3)CC2)c1 [Example 79]

>  <RESULT_TYPE>
pIC50 hERG

>  <MEASUREMENT>
6.1

$$$$
>  <COMPOUND>
Fc1cccc(Oc2cc(F)c(F)cc2N2CCC3(CCNCC3)C2)c1 [Example 90]

>  <RESULT_TYPE>
pIC50 hERG

>  <MEASUREMENT>
6.1

$$$$
>  <COMPOUND>
Cl.Fc1cccc(Oc2cncc(N3CCC4(CC3)CNCCO4)n2)c1 [Example 41]

>  <RESULT_TYPE>
pIC50 hERG

>  <MEASUREMENT>
5.9

$$$$
>  <COMPOUND>
Fc1cccc(Oc2cc(F)c(F)cc2N2CCC3(CC2)CNCCO3)c1 [Example 1]

>  <RESULT_TYPE>
pIC50 hERG

>  <MEASUREMENT>
6.0

$$$$

get_value(item= N#Cc1cc(Oc2ccccc2)cc(N2CCC3(CC2)CNCCO3)c1 [Example 25] , readout=pIC50 hERG) returns 6.1

----------
# SUBJECT_OF_TEST: human serotonin transporter (SERT) (Homo sapiens (Human), UniProt P31645)
# Sequence (P31645 whole entry): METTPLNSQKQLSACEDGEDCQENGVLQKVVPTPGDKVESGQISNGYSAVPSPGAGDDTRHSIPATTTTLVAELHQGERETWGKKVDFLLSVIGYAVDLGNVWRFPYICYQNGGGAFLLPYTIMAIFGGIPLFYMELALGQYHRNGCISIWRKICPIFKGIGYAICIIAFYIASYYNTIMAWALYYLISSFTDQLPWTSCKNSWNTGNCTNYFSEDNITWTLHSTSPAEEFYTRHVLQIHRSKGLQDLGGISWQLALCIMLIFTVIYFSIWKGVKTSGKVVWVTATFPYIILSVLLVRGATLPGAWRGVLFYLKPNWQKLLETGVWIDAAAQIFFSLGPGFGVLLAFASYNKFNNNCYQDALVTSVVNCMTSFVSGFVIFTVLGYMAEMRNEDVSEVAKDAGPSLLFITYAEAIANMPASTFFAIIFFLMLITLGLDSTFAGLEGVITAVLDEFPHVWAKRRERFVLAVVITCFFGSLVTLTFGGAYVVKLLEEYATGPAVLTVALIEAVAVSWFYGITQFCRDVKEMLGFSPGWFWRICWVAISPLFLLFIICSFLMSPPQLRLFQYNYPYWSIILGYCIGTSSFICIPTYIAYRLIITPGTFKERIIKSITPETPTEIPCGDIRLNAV
# ASSAY: Scintillation Proximity Assay (SPA) competition binding, human SERT
# CONDITION_PARAMETERS: recombinant hSERT-CHO membranes, [3H]citalopram
Task for the reader: assign each of the following molecules its reported pIC50 SERT.
Give bare numbers.

These recorded examples may help you get a feel for the data.
>  <MOLECULE>
Fc1c(Oc2ccccc2)cccc1N1CCC2(CC1)CNCCO2

>  <SUBJECT_OF_TEST>
human serotonin transporter (SERT) (Homo sapiens (Human), UniProt P31645)

>  <pIC50 SERT>
5.65

$$$$
>  <MOLECULE>
Fc1cccc(Oc2cc(F)c(F)cc2N2CCC3(CCCNC3)C2)c1 (stereo not shown)

>  <SUBJECT_OF_TEST>
human serotonin transporter (SERT) (Homo sapiens (Human), UniProt P31645)

>  <pIC50 SERT>
6.33

$$$$
>  <MOLECULE>
CN1CCCNCC12CCN(c1nc(Oc3cccc(F)c3)cc(C(F)(F)F)n1)CC2

>  <SUBJECT_OF_TEST>
human serotonin transporter (SERT) (Homo sapiens (Human), UniProt P31645)

>  <pIC50 SERT>
5.30

$$$$
>  <MOLECULE>
Fc1cccc(Oc2cc(C(F)(F)F)nc(N3CC4(CNCCO4)C3)n2)c1

>  <SUBJECT_OF_TEST>
human serotonin transporter (SERT) (Homo sapiens (Human), UniProt P31645)

>  <pIC50 SERT>
4.00

$$$$
>  <MOLECULE>
Fc1cccc(Oc2cc(F)c(F)cc2N2CCC3(CCNCC34OCCO4)C2)c1 (stereo not shown)

>  <SUBJECT_OF_TEST>
human serotonin transporter (SERT) (Homo sapiens (Human), UniProt P31645)

>  <pIC50 SERT>
6.90

$$$$
>  <MOLECULE>
Fc1cccc(Oc2cncc(N3CCC4(CC3)CNCCO4)c2)c1

>  <SUBJECT_OF_TEST>
human serotonin transporter (SERT) (Homo sapiens (Human), UniProt P31645)

>  <pIC50 SERT>
5.71

$$$$

Hi team, please reply with pIC50 SERT for each item in this list.
1. Fc1cccc(Oc2ccc(F)c(N3CCC4(CC3)CNCCO4)c2)c1
2. CN1CCNCC12CCN(c1nc(Oc3cccc(F)c3)cc(C(F)(F)F)n1)CC2
3. Fc1cccc(Oc2cc(C(F)(F)F)nc(N3CCC4(CNCCC45OCCO5)C3)n2)c1 (stereo not shown)

### Response
1. 5.32
2. 4.95
3. 5.43

Need pIC50 SERT for each of these molecules.
1. Fc1cccc(Oc2cc(C(F)(F)F)nc(N3CCC4(CC3)CNCCN4)n2)c1
2. Cl.Fc1cccc(Oc2cc(C(F)(F)F)nc(N3CCOC4(CCNCC4)C3)n2)c1
3. Fc1cccc(Oc2cc(F)c(F)cc2N2CCC3(CNCCO3)C2)c1 (stereo not shown)
4. Fc1cccc(Oc2cc(F)c(F)cc2N2CCC3(CCNCC3)C2)c1
5. Fc1cccc(Oc2cc(F)c(F)cc2N2CCC3(CCCNC3)CC2)c1
6. Cl.Fc1cccc(Oc2cc(F)c(F)cc2N2CCC3(CCNCC34OCCO4)C2)c1 (stereo not shown)
7. O=C1NCC2(CCN(c3nc(Oc4cccc(F)c4)cc(C(F)(F)F)n3)CC2)O1

### Response
5.18
5.32
6.40
6.31
6.49
7.14
4.89

Okay, here is my list. What is pIC50 SERT for each of these?
1. Cl.Fc1cccc(Oc2cc(F)c(F)cc2N2CCC3(CC2)CNCCO3)c1
2. Cl.Fc1cccc(Oc2cncc(N3CCC4(CC3)CNCCO4)n2)c1
3. Cc1cc(Oc2cccnc2)nc(N2CCC3(CC2)CNCCO3)n1.Cl

### Response
1: 6.49; 2: 6.02; 3: 4.56

----------
# SUBJECT_OF_TEST: human dopamine transporter (DAT) (Homo sapiens (Human), UniProt Q01959)
# Sequence (Q01959 whole entry): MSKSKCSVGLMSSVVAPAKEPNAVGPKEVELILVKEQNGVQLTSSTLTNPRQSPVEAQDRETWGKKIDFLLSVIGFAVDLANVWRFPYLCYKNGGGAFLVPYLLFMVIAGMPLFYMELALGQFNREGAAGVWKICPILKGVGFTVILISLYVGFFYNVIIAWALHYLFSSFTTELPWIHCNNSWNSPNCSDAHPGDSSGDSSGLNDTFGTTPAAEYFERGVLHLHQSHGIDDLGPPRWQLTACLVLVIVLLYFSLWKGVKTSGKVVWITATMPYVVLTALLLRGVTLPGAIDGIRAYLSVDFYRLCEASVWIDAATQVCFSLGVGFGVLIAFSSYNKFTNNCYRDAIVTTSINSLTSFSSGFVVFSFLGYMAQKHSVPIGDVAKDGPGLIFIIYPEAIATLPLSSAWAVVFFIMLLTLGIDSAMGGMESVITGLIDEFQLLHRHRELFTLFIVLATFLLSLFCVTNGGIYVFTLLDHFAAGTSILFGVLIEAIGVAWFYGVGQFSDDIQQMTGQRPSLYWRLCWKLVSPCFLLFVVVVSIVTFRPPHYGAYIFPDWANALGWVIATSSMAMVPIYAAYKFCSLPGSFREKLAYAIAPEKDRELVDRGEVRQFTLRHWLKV
# ASSAY: Scintillation Proximity Assay (SPA) competition binding, human DAT
# CONDITION_PARAMETERS: recombinant hDAT-CHO membranes, [3H]WIN-35,428
RESULT_TYPE: pIC50 DAT
One number for each entry.

See these solved cases before continuing.
>  <MOLECULE>
O=C1CCNCC12CCN(c1cc(F)c(F)cc1Oc1cccc(F)c1)C2 (stereo not shown)

>  <pIC50 DAT>
6.87

$$$$
>  <MOLECULE>
Cl.Fc1ccccc1Oc1cc(C(F)(F)F)nc(N2CCC3(CC2)CNCCO3)n1

>  <pIC50 DAT>
7.89

$$$$
>  <MOLECULE>
Fc1cccc(Oc2cc(F)c(F)cc2N2CCC3(CCNC3)CC2)c1

>  <pIC50 DAT>
8.01

$$$$
>  <MOLECULE>
Fc1cccc(Oc2cc(F)c(F)cc2N2CCC3(CCCNC3)CC2)c1

>  <pIC50 DAT>
7.86

$$$$

// each listed molecule needs a value for pIC50 DAT
1. Cl.O=C1CCNCC12CCN(c1nc(Oc3cccc(F)c3)cc(C(F)(F)F)n1)C2 (stereo not shown)
2. CSc1cc(Oc2cccc(F)c2)nc(N2CCC3(CC2)CNCCO3)n1.Cl

### Response
8.15
8.07

GET /value?item= COc1cccc(Oc2cc(C)nc(N3CCC4(CC3)CNCCO4)n2)c1.Cl &field=pIC50 DAT returns 6.92

----------
# SUBJECT_OF_TEST: UniProt P23975
# Sequence (P23975 whole entry): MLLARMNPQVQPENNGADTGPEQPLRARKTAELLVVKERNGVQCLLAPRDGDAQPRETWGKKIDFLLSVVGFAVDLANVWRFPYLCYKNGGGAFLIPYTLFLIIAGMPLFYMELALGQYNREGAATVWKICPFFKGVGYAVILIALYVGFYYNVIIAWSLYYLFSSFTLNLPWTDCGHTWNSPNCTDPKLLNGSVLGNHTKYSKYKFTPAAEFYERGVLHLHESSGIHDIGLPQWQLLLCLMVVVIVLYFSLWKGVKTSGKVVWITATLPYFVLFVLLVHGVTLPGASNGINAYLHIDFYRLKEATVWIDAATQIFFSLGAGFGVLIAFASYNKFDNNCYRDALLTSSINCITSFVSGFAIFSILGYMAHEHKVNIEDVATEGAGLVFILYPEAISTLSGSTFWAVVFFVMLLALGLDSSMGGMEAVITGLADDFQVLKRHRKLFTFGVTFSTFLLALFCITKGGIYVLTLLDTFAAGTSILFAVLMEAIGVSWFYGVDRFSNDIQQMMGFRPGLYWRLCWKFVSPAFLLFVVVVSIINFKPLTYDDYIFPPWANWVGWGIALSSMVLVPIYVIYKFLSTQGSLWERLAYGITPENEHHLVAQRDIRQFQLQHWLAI
# ASSAY: Scintillation Proximity Assay (SPA) competition binding, human NET
# CONDITION_PARAMETERS: recombinant hNET-CHO membranes, [3H]nisoxetine
Consider the following compounds; for each one, report its pIC50 NET.
Give bare numbers.

Previously resolved entries follow.
>  <STRUCTURE_STRING>
Cc1cc(Oc2ccccc2)nc(N2CCC3(CC2)CNCCO3)n1.Cl

>  <RESULT_TYPE>
pIC50 NET

>  <MEASUREMENT>
6.11

$$$$
>  <STRUCTURE_STRING>
Fc1cccc(Oc2ccccc2N2CCC3(CC2)CNCCO3)c1

>  <RESULT_TYPE>
pIC50 NET

>  <MEASUREMENT>
6.13

$$$$

We next turn to a different compound, shown below.
The compound identified as Fc1cccc(Oc2cc(N3CCC4(CC3)CNCCO4)cc(F)c2F)c1 registered its pIC50 NET at 6.02
